Experiment: in vivo
Conditions: beagle, dog, iv, 1.2 mg/kg
PROPERTY: Tmax (min)
The answer is to be given in min; state only the numeric part.

**Query** Which Tmax value belongs to CC(=O)O[C@H]1C(=O)[C@]23C[C@H]2C[C@H]2OC[C@@]2(OC(C)=O)[C@H]3[C@H](OC(=O)c2ccccc2)[C@]2(O)C[C@H](OC(=O)[C@H](O)[C@H](CC(C)C)NC(=O)OC(C)(C)C)C(C)=C1C2(C)C ?
**Result** 48.6

* * *

Assay: in vivo
Settings: beagle, dog, iv, 2.4 mg/kg
PROPERTY: half-life (h)
Form entry: value (h) — number only.

**Query** Query (molecule): CC(=O)O[C@H]1C(=O)[C@]23C[C@H]2C[C@H]2OC[C@@]2(OC(C)=O)[C@H]3[C@H](OC(=O)c2ccccc2)[C@]2(O)C[C@H](OC(=O)[C@H](O)[C@H](CC(C)C)NC(=O)OC(C)(C)C)C(C)=C1C2(C)C ; field requested: half-life
**Result** 8.35

* * *

Assay: in vivo
Conditions: beagle, dog, iv, 2.4 mg/kg
PROPERTY: Tmax (min)
Quick note: give the figure in min, leave out the unit.

**Query** Need Tmax of CC(=O)O[C@H]1C(=O)[C@]23C[C@H]2C[C@H]2OC[C@@]2(OC(C)=O)[C@H]3[C@H](OC(=O)c2ccccc2)[C@]2(O)C[C@H](OC(=O)[C@H](O)[C@H](CC(C)C)NC(=O)OC(C)(C)C)C(C)=C1C2(C)C , thanks.
**Result** 58.2

* * *

Experiment: in vivo
Settings: beagle, dog, iv, 1.2 mg/kg
PROPERTY: Vd (L/kg)
Value expressed in L/kg; do not type the unit.

**Query** // query Vd value for entry CC(=O)O[C@H]1C(=O)[C@]23C[C@H]2C[C@H]2OC[C@@]2(OC(C)=O)[C@H]3[C@H](OC(=O)c2ccccc2)[C@]2(O)C[C@H](OC(=O)[C@H](O)[C@H](CC(C)C)NC(=O)OC(C)(C)C)C(C)=C1C2(C)C
**Result** 34.8

* * *

Test: in vivo
Conditions: beagle, dog, iv, 1.2 mg/kg
PROPERTY: Cmax
The answer consists of two parts: a number and, after it, its unit.

**Query** Fill in: Cmax of CC(=O)O[C@H]1C(=O)[C@]23C[C@H]2C[C@H]2OC[C@@]2(OC(C)=O)[C@H]3[C@H](OC(=O)c2ccccc2)[C@]2(O)C[C@H](OC(=O)[C@H](O)[C@H](CC(C)C)NC(=O)OC(C)(C)C)C(C)=C1C2(C)C is ___
**Result** 388 ng/mL

* * *

Assay: in vivo
Details: beagle, dog, iv, 2.4 mg/kg
PROPERTY: Cmax (ng/mL)
// note: answer is a bare numeric in ng/mL

**Query** GET /values?readout=Cmax&item= CC(=O)O[C@H]1C(=O)[C@]23C[C@H]2C[C@H]2OC[C@@]2(OC(C)=O)[C@H]3[C@H](OC(=O)c2ccccc2)[C@]2(O)C[C@H](OC(=O)[C@H](O)[C@H](CC(C)C)NC(=O)OC(C)(C)C)C(C)=C1C2(C)C
**Result** 974
